# study-system: CDK2/CycE (Homo sapiens, UniProt P24941)
# experimental-protocol: CDK2/CycE kinase assay (TR-FRET, 2 mM ATP)
# experimental-conditions: 2 mM ATP (high ATP); median; read-out: CDK2/CyclinE, 2 mM ATP (high ATP), IC50 (median)
# Procedure: CDK2/CycE-inhibitory activity of compounds of the present invention was quantified employing the CDK2/CycE TR-FRET assay as described in the following paragraphs. […] The resulting mixture was incubated 1 h at 22° C. to allow the formation of complex between the phosphorylated biotinylated peptide and the detection reagents. Subsequently the amount of phosphorylated substrate was evaluated by measurement of the resonance energy transfer from the Eu-chelate to the streptavidine-XL. […]
Lab note: cut-off is 7 µM. Strictly less in IC50 is MET. Exactly 7 µM or more is NOT MET.

Asked: hey, is IC50 for `Brc1cnn2c(NCc3nc4ccccc4[nH]3)nc(NCCN3CCCC3)nc12` lower than 7 µM or not?
Given back: NOT MET

Asked: Queued: `CC(C)c1cnn2c(NCc3ncc(-c4ccccc4)[nH]3)nc(N3CCCCC3)nc12`
Given back: NOT MET

Asked: Same read-out for `Brc1cnn2c(NCc3nc4ccccc4[nH]3)nc(OC3CCOCC3)nc12` ?
Given back: NOT MET

Asked: Further, for `Clc1cccc(-c2cnn3c(NCc4nc5ccccc5[nH]4)nc(N4CCOCC4)nc23)c1` ?
Given back: NOT MET

Asked: Same question, `Fc1cc2nc(CNc3nc(N4CC5CCC(C4)N5)nc4c(C5CC5)cnn34)[nH]c2cc1F` this time
Given back: NOT MET

Asked: Repeat with CN1CC2CCC1CN2c1nc(NCc2nc3ccccc3[nH]2)n2ncc(Br)c2n1 (stereo not shown)
Given back: MET

Asked: // repeat for `Clc1cccc(-c2cnc(CNc3nc(N4CCOCC4)nc4c(Br)cnn34)[nH]2)c1` and report
Given back: MET

Asked: Lookup CN1CCN(c2nc(NCc3nc4ccccc4[nH]3)n3ncc(C4CC4(F)F)c3n2)CC1 (stereo not shown)
Given back: NOT MET

Asked: Let us now turn to `CN1CCC(Oc2nc(NCc3nc4ccccc4[nH]3)n3ncc(Br)c3n2)CC1`
Given back: NOT MET

Asked: What do you get for CCC1COCCN1c1nc(NCc2nc3ccccc3[nH]2)n2ncc(Br)c2n1 (stereo not shown) ?
Given back: MET

Asked: Also need `Brc1cnn2c(NCc3nc4ccccc4[nH]3)nc(N3CCN(C4CC4)CC3)nc12` , thanks.
Given back: NOT MET

Asked: Also, `CC(C)c1cnn2c(NCc3nnc(-c4ccccc4)[nH]3)nc(N(C)CC(C)(C)O)nc12` please.
Given back: MET

Asked: Could you do the same for `Fc1cccc2[nH]c(CNc3nc(N4CCOCC4)nc4c(C5CC5)cnn34)nc12` , please?
Given back: NOT MET

Asked: Thanks! And `C[C@H]1CN(c2nc(NCc3nc4ccccc4[nH]3)n3ncc(Br)c3n2)CCN1C` ?
Given back: NOT MET

Asked: Please give the result for `Fc1ccc2[nH]c(CNc3nc(N4CCOCC4)nc4c(C5CC5)cnn34)nc2c1` too.
Given back: NOT MET

Asked: Let us now turn to `CN(CC(C)(C)O)c1nc(NCc2nc3ccccc3[nH]2)n2ncc(Br)c2n1`
Given back: MET

Asked: Subsequent entry: `CC(C)c1cnn2c(NCc3nc4ccccc4[nH]3)nc(N3CCOC[C@H]3C)nc12`
Given back: MET

Asked: Now consider C[C@@H]1CN(c2nc(NCc3nnc(-c4ccccc4)[nH]3)n3ncc(Br)c3n2)CCN1C.O=CO [Example 130, formate] .
Given back: NOT MET

Asked: Then `Brc1cnn2c(NCc3nc4c([nH]3)CCCC4)nc(N3CCOCC3)nc12` ?
Given back: MET

Asked: // repeat for `FC(F)n1cc(-c2cnn3c(NCc4nc5cc(Cl)c(Cl)cc5[nH]4)nc(N4CCOCC4)nc23)cn1` and report
Given back: NOT MET

Asked: Request: `Brc1cnn2c(NCc3nnc(-c4ccccn4)[nH]3)nc(N3CCOCC3)nc12`
Given back: MET

Asked: Would you mind doing `CC[C@@H](CO)Nc1nc(NCc2nc3ccccc3[nH]2)n2ncc(Br)c2n1` as well?
Given back: MET

Asked: Okay, and `CNC1CCN(c2nc(NCc3nc4ccccc4[nH]3)n3ncc(Br)c3n2)CC1` ?
Given back: NOT MET

Asked: Try this molecule next: Brc1cnn2c(NCc3nc4ccccc4[nH]3)nc(N3CCC4(CCCN4)C3)nc12 (stereo not shown)
Given back: NOT MET

Asked: Follow-up item: `Brc1cnn2c(NCc3nc4ccccc4[nH]3)nc(N3C[C@H]4C[C@@H]3CO4)nc12`
Given back: MET
